- test system: T1, mouse B7-H4 on the cell surface (mouse, UniProt Q7TSP5 25-257)
- T1 construct: full-length, on transfected HEK293T cells
- T1 sequence: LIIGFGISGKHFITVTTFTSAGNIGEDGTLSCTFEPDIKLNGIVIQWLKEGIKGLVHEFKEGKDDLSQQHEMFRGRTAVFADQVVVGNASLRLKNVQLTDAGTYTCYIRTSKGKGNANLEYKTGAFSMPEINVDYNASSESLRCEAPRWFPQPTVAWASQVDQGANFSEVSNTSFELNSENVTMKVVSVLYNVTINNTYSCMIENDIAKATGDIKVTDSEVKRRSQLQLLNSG
- method notes: flow cytometry, 100 nM, transfected HEK293T
experimental endpoint: FOP (fold binding over the parental cell line) (fold)

1) B7-H4 antibody 20500 (antibody, human IgG1, kappa, V domains shown, human IgG1/kappa) VH: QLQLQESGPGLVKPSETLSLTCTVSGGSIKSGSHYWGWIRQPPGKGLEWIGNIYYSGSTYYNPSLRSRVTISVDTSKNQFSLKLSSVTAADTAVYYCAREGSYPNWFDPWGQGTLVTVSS VL: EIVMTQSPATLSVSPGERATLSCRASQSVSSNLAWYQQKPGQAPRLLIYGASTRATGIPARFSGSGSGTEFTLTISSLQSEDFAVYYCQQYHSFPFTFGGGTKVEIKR	478
2) B7-H4 antibody 15461 (antibody, human IgG1, kappa, V domains shown, human IgG1/kappa) VH: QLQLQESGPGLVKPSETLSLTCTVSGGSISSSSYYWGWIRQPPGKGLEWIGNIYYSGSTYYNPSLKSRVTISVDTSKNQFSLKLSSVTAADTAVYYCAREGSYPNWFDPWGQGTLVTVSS VL: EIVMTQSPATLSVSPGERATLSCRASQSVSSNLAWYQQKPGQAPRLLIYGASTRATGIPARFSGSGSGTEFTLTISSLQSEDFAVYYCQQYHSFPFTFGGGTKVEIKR	887
3) B7-H4 antibody 15465 (antibody, human IgG1, kappa, V domains shown, human IgG1/kappa) VH: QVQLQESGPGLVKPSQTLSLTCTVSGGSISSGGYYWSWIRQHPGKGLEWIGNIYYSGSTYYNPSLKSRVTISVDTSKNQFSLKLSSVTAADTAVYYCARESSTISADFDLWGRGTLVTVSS VL: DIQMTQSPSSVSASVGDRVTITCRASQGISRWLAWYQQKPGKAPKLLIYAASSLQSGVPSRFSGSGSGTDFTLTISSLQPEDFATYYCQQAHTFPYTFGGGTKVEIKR	690
4) B7-H4 antibody 20502.1 (antibody, human IgG1, kappa, V domains shown, human IgG1/kappa) VH: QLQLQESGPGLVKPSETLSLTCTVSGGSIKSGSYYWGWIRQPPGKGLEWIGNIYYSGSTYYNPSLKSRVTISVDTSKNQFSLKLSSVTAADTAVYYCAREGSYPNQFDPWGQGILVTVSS VL: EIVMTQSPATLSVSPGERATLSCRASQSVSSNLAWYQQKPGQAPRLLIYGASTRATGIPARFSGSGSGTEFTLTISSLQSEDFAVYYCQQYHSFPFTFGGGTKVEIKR	559
